Test: ATG_SREBP_CIS: Attagene CIS-FACTORIAL HepG2 Assay for human Sterol Regulatory Element Binding (SREBP) (AID 2282962)
Details: HepG2 Attagene cis-factorial SREBP reporter, mRNA; actives raise or lower the signal
Calls of active or inactive are those of the source. How the source made its calls: active means hit-call score of the fitted dose curve at least 0.9, where 1 is the maximum; inactive means score below 0.9.
Please reply with one of these outcomes: active, inactive

INSERT INTO results (compound, category) VALUES
  ('Cc1cc2c(cc1C(F)(F)F)N(C(=O)Nc1ccc(Oc3cccnc3C)nc1)CC2', 'inactive');

Name the outcome recorded for C[C@]12CC[C@@H]3c4ccc(O)cc4CC[C@H]3[C@@H]1CCC2=O in the assay.
inactive

Name the outcome recorded for OC12N=C(c3ccccc3)SC1Cc1cc(Cl)ccc12 (configuration not stated) in the assay.
inactive

Name the outcome recorded for CCCC(=O)OCCC(C)C in the assay.
inactive

Name the outcome recorded for Cc1cccc2ccccc12 in the assay.
inactive

Name the outcome recorded for CN1C(=O)N(c2ccccc2Br)Cc2cnc(Nc3ccc4c(c3)OCC(CO)O4)nc21 (configuration not stated) in the assay.
active

###

Assay: CCTE_Shafer_MEA_acute_burst_percentage_mean: CCTE's Neural Acute Assay for Percentage of Spikes in a Burst, Shafer Lab (AID 2284017);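 on AC50: curve fitted for loss of signal so potency reflects decreased burst percentage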
The source made the active and inactive calls. How the source made its calls: active means hit-call score of the fitted dose curve at least 0.9, where 1 is the maximum; inactive means score below 0.9.
Readout label: AC50

Before answering, review these 4 worked examples.
INSERT INTO measurements (compound, reported_value) VALUES
  ('CCCCCCCCCCCCO', '25.5 µM (active)'),
  ('CC(C)(C)c1cc(/C=C2\SC(N)=NC2=O)cc(C(C)(C)C)c1O', 'inactive'),
  ('NC(=O)c1nc(-c2cccc(-c3cc(F)ccc3OCC(F)(F)C(F)(F)F)c2)n[nH]1', '7.48 µM (active)'),
  ('CC(=O)N1CCN(c2ccc(OC[C@H]3CO[C@](Cn4ccnc4)(c4ccc(Cl)cc4Cl)O3)cc2)CC1', '33 µM (active)');

Quick one: AC50 of OC12N=C(c3ccccc3)SC1Cc1cc(Cl)ccc12 (stereo not drawn) ?
32.6 µM (active)

Quick one: AC50 of CC(O)CC(C)(C)O (stereo not drawn) ?
inactive

Quick one: AC50 of CN(C)C(=O)C1(N2CCCCC2)CCN(CC[C@@]2(c3ccc(Cl)c(Cl)c3)CN(C(=O)c3ccccc3)CCO2)CC1 ?
19.4 µM (active)

Quick one: AC50 of CC(C)(c1cc(Br)c(O)c(Br)c1)c1cc(Br)c(O)c(Br)c1 ?
19.1 µM (active)

###

Molecular target: rat Peripheral-type Benzodiazepine Receptor (PBR), Tspo (gene 24230) (UniProt P16257)
Sequence (P16257 whole entry, looked up): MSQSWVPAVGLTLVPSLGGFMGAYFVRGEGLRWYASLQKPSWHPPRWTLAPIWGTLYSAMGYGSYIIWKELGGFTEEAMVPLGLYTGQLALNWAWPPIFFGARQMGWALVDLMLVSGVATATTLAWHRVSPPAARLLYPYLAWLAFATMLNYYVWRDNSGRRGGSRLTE
Experiment: NVS_MP_rPBR: NovaScreen (NVS) Membrane Protein Assay for rat Peripheral-type Benzodiazepine Receptor (PBR) (AID 2283335)
Inconclusive results are not listed. Calls of active or inactive are those of the source. Rule for the calls: active = hit-call score of the fitted dose curve at least 0.9, where 1 is the maximum; inconclusive = response in the unintended direction; inactive = score below 0.9.
Please reply with one of these outcomes: active, inactive

Worked cases, answers included:
INSERT INTO results (compound, study_system, category) VALUES
  ('O=c1c(-c2ccc(O)cc2)coc2cc(O)cc(O)c12', 'rat Peripheral-type Benzodiazepine Receptor (PBR), Tspo (gene 24230) (UniProt P16257)', 'inactive'),
  ('Cc1oc2c(NC(=O)c3c(Cl)cccc3Cl)cccc2c1C(C)(C)O', 'rat Peripheral-type Benzodiazepine Receptor (PBR), Tspo (gene 24230) (UniProt P16257)', 'active'),
  ('Cc1c2ccccc2c(C)c2c1ccc1ccccc12', 'rat Peripheral-type Benzodiazepine Receptor (PBR), Tspo (gene 24230) (UniProt P16257)', 'active'),
  ('NCc1cccc(C2CCN(C(=O)c3ccc(C#Cc4ccccc4F)o3)CC2)c1', 'rat Peripheral-type Benzodiazepine Receptor (PBR), Tspo (gene 24230) (UniProt P16257)', 'inactive'),
  ('NC(=O)c1nc(-c2cccc(-c3cc(F)ccc3OCC(F)(F)C(F)(F)F)c2)n[nH]1', 'rat Peripheral-type Benzodiazepine Receptor (PBR), Tspo (gene 24230) (UniProt P16257)', 'active');

Name the outcome recorded for OC12N=C(c3ccccc3)SC1Cc1cc(Cl)ccc12 (stereo not given) in the assay.
active

Name the outcome recorded for CCCCCCCCOC(=O)c1cc(O)c(O)c(O)c1 in the assay.
active

Name the outcome recorded for CC(C)(O)c1ccc(CNC(=O)c2cccnc2Oc2ccc3nonc3c2)cc1 in the assay.
active

Name the outcome recorded for CC[C@H](NC(=O)c1cc(F)ccc1NS(=O)(=O)c1cccc2cccnc12)c1ccccc1 in the assay.
active

Name the outcome recorded for Cc1ccc2oc(CN(Cc3ccccc3)C(=O)Nc3c(F)cc(F)cc3F)c(-c3ccc(Cl)cc3)c2c1 in the assay.
active

###

Read-out: Urokinase-type plasminogen activator receptor (uPAR), PLAUR (gene 5329)
Experiment: BSK_CASM3C_uPAR: BioMAP Diversity Plus: CASM3C Assay for Urokinase-type plasminogen activator receptor (uPAR) Biomarker Activity (AID 2283054);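 further: cell-surface uPAR protein level quantified by ELISA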
Conditions: primary human coronary artery smooth muscle cells; actives raise or lower the signal
Active and inactive are the calls of the source. How the source made its calls: active means hit-call score of the fitted dose curve at least 0.9, where 1 is the maximum; inactive means score below 0.9.
Please reply with one of these outcomes: yes for active, no for inactive

Worked cases, answers included:
INSERT INTO measurements (compound, category) VALUES
  ('CN1C(=O)CC[C@H]1c1cccnc1', 'no'),
  ('O=C(O)Cn1c(=O)n(Cc2ccc(Br)cc2F)c(=O)c2ccc(Cl)cc21', 'no'),
  ('CC(C)(C)c1cc(/C=C2\SC(N)=NC2=O)cc(C(C)(C)C)c1O', 'yes'),
  ('COc1cccc([C@H](O)C2CCN(CCc3ccc(F)cc3)CC2)c1OC', 'no');

Name the outcome recorded for CCCCCCCCOc1ccc(C(=O)c2ccccc2)c(O)c1 in the assay.
no

Name the outcome recorded for CN(C[C@@H](CC[N+]12CCC(C3CCCCC3)(CC1)CC2)c1ccc(Cl)c(Cl)c1)C(=O)c1cc(C(F)(F)F)cc(C(F)(F)F)c1 in the assay.
yes

Name the outcome recorded for CCN(Cc1cccnc1)C(=O)c1cccc(Cl)c1[C@]1(C)C(=O)N(Cc2ccc(OC)cc2OC)c2ccc(Cl)cc21 in the assay.
no

Name the outcome recorded for NCc1cccc(C2CCN(C(=O)c3ccc(C#Cc4ccccc4F)o3)CC2)c1 in the assay.
yes

###

Read-out: Transforming Growth Factor (TGFA), TGFA (gene 7039)
Test: LTEA_HepaRG_TGFA: Life Technologies and Expression Analysis (LTEA) Assay for Transforming Growth Factor (TGFA) using HepaRG (AID 2283532)
Details: mRNA level, 48 h; actives raise or lower the signal
Calls of active or inactive are those of the source. Rule for the calls: active = hit-call score of the fitted dose curve at least 0.9, where 1 is the maximum; inactive = score below 0.9.
Please reply with one of these outcomes: active, inactive

Worked cases, answers included:
INSERT INTO measurements (compound, category) VALUES
  ('CCCCCc1ccc(N)cc1', 'inactive'),
  ('CN(C[C@@H](CC[N+]12CCC(C3CCCCC3)(CC1)CC2)c1ccc(Cl)c(Cl)c1)C(=O)c1cc(C(F)(F)F)cc(C(F)(F)F)c1', 'active'),
  ('CC(=O)N1CCN(c2ccc(OC[C@H]3CO[C@](Cn4ccnc4)(c4ccc(Cl)cc4Cl)O3)cc2)CC1', 'active'),
  ('OCCO', 'inactive'),
  ('CCCCCCCCCCCCO', 'inactive'),
  ('CCCCOC(=O)c1ccc(O)cc1', 'inactive');

Name the outcome recorded for CN1C(=O)N(c2ccccc2Br)Cc2cnc(Nc3ccc4c(c3)OCC(CO)O4)nc21 (stereo not given) in the assay.
inactive

Name the outcome recorded for Cc1c2ccccc2c(C)c2c1ccc1ccccc12 in the assay.
active

Name the outcome recorded for CCCCCCCCN(C)CCCCCCCC in the assay.
inactive

###

Read-out: Cytochrome P450 7A1 (Homo sapiens)
Assay: LTEA_HepaRG_CYP7A1: Life Technologies and Expression Analysis (LTEA) Assay for Cytochrome P450 7A1 (CYP7A1) using HepaRG (AID 2283496)
Settings: mRNA level, 48 h; actives raise or lower the signal
The source made the active and inactive calls. Rule for the calls: active = hit-call score of the fitted dose curve at least 0.9, where 1 is the maximum; inactive = score below 0.9.
Please reply with one of these outcomes: active, inactive

INSERT INTO measurements (test_smiles, category) VALUES
  ('O=C1CCC(C2CCCCC2)CC1', 'inactive'),
  ('O=C(OCCCCCCOC(=O)c1ccccc1)c1ccccc1', 'inactive'),
  ('O=C(O)Cn1c(=O)n(Cc2ccc(Br)cc2F)c(=O)c2ccc(Cl)cc21', 'inactive'),
  ('Cc1c2ccccc2c(C)c2c1ccc1ccccc12', 'active'),
  ('CCOC(=O)O[C@H](C)OC(=O)c1ccc2c(c1)cc(C(=O)NC1CCN(C(C)C)CC1)n2Cc1cc(-c2ccc(Cl)s2)on1', 'inactive');

Name the outcome recorded for CC[C@H](NC(=O)c1cc(F)ccc1NS(=O)(=O)c1cccc2cccnc12)c1ccccc1 in the assay.
active

Name the outcome recorded for C[C@]12CC[C@@H]3c4ccc(O)cc4CC[C@H]3[C@@H]1CC[C@H]2O in the assay.
inactive

###

System: SRY-box transcription factor 17 (SOX17) Protein Expression, Deisenroth Lab, SOX17 (gene 64321)
Assay: CCTE_Deisenroth_DEVTOX-GLR_Endo_SOX17: CCTE's DevTox GLR-Endo Assay Evaluation of SRY-box transcription factor 17 (SOX17) Protein Expression, Deisenroth Lab (AID 2284413)
Protocol: CCTE_Deisenroth_DEVTOX-GLR_Endo assay is a cell-based, multiplex-readout assay that uses RUES2-GLR, a human pluripotent cell line, with measurements taken at 48 hours after chemical dosing in a 384-well microplateCCTE_Deisenroth_DEVTOX-GLR_Endo_SOX17 is 1 of 4 assay components calculated from the CCTE_Deisenroth_DEVTOX-GLR_Endo assay and it measures the percentage of cells in an endoderm state. […]
Activity calls are given as the source filed them. How the source made its calls: active means hit-call score of the fitted dose curve at least 0.9, where 1 is the maximum; inactive means score below 0.9.
Please reply with one of these outcomes: active, inactive

Worked cases, answers included:
INSERT INTO results (test_smiles, category) VALUES
  ('OCCO', 'inactive'),
  ('CO[C@H]1/C=C/O[C@@]2(C)Oc3c(C)c(O)c4c(O)c(c(/C=N/N5CCN(C)CC5)c(O)c4c3C2=O)NC(=O)/C(C)=C\C=C\[C@H](C)[C@H](O)[C@@H](C)[C@@H](O)[C@@H](C)[C@H](OC(C)=O)[C@@H]1C', 'active'),
  ('CC/C(=C(/CC)c1ccc(O)cc1)c1ccc(O)cc1', 'active');

Name the outcome recorded for CCCCOC(=O)c1ccc(O)cc1 in the assay.
active
